target-entity: human D2R/β-arrestin (Homo sapiens (Human), UniProt P14416)
protocol-description: Gi/cAMP agonist assay (Lance Ultra cAMP, forskolin)
Format: cell-based
study-conditions: CHO-K1 cells expressing human D2R/β-arrestin; agonist mode, 2.5 μM forskolin
pEC50: −log10 of the molar value.
assay-readout: pEC50

Some compounds with recorded pEC50:
CC1(C(O)c2ccccc2)CCN(CCOc2ccccc2C(F)(F)F)CC1 (stereo not shown) ... > 7.00
C[C@]1(O)C[C@H]2CC[C@@H](C1)N2CCOc1ccccc1C(F)(F)F ... < 4.52
CC1(Oc2ccccc2)CCN(CCC(=O)c2ccccc2C(F)(F)F)CC1 ... < 4.52
CC(C)Oc1cc(F)ccc1OCCN1CCC(C)(Oc2ccc(Cl)cc2)CC1 ... < 4.52
CC1(Oc2ccc(C(F)(F)F)cc2)CCN(CCOc2ccccc2)C1 (stereo not shown) ... 6.00 to 7.00
Cc1ccc(OCCN2CCC(C)(Oc3ccc(Cl)cc3)C2)cc1 (stereo not shown) ... 6.00 to 7.00
CC1(Oc2ccc(Cl)cc2)CCN(CCOc2cc(F)ccc2F)C1 (stereo not shown) ... > 7.00
CC1(Oc2cccc(C(F)(F)F)c2)CCN(CCOc2ccccc2F)C1 (stereo not shown) ... 6.00 to 7.00

(Q) For the compound shown here, `COc1ccccc1OCCN1CCC(C)(Oc2ccccc2)CC1` , give the reported pEC50.
(A) > 7.00

(Q) For the compound shown here, CC1(Oc2cccc(C(F)(F)F)c2)CCN(CCOc2ccccc2Cl)C1 (stereo not shown) , give the reported pEC50.
(A) < 4.52

====

Overview of reported pIC50 across a group of compounds:
target-entity: human D2R/β-arrestin (Homo sapiens (Human), UniProt P14416)
protocol-description: cell-based
study-conditions: β-arrestin Antagonist, CHO-K1 cells expressing human D2R/β-arrestin; antagonist mode, quinpirole 130 nM
pIC50: −log10 of the molar value.

Some compounds with recorded pIC50:
CCc1ccccc1OCCN1CCC(C)(Oc2ccccc2)CC1 ... 6.00 to 7.00
OC1(Cc2ccccc2F)CCN(CCOc2ccccc2)C1 (centres unmarked) [Compound 300, reference compound] ... 4.52 to 5.00
CC1(Oc2cccc(Cl)c2)CCN(CCOc2ccccc2)C1 (centres unmarked) ... 5.00 to 6.00
CC1(Oc2ccc(Cl)cc2)CCN(CCOc2cccc3ccccc23)C1 (centres unmarked) ... 5.00 to 6.00
CC1(O)CCN(CCOc2ccccc2C(F)(F)F)CC1 ... 6.00 to 7.00

(Q) For the compound shown here, FC(F)(F)c1ccccc1OCCN1CCC2(CC1)CC2c1ccc(Cl)cc1 (single isomer, unassigned) [Compound 216b] , give the reported pIC50.
(A) 4.52 to 5.00

(Q) For the compound shown here, CC1(Oc2ccc(Cl)cc2)CCN(CCOc2cccnc2)C1 (centres unmarked) , give the reported pIC50.
(A) < 4.52

====

target-entity: D2 receptor (Homo sapiens (Human))
Sequence (P14416 whole entry): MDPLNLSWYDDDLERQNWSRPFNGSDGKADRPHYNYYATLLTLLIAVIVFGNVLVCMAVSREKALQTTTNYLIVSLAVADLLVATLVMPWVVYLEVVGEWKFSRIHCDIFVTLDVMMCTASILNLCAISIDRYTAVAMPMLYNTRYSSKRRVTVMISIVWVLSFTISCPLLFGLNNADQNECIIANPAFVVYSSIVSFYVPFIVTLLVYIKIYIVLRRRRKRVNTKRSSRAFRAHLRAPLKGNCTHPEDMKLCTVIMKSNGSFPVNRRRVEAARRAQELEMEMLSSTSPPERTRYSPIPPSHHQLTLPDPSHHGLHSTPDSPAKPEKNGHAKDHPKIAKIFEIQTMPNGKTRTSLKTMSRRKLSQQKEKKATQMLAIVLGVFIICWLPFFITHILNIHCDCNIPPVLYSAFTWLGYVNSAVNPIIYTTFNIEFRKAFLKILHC
protocol-description: D2 radioligand binding assay
pKi: −log10 of the molar value.
assay-readout: pKi

Some molecules with recorded pKi:
CC1(Oc2ccccn2)CCN(CCOc2ccc(C(F)(F)F)cc2)CC1 ... 4.52 to 5.00
CC1(Oc2ccccc2)CC2CCC(C1)N2CCOc1ccccc1C(F)(F)F (stereo not drawn) ... 6.00 to 7.00
Fc1ccccc1OCCN1CCC2(CC1)CCN2c1ccc(Cl)cc1 ... > 7.00
CNC(=O)C1(C)CCN(CC2COc3ccccc3O2)CC1 (single isomer, unassigned) [Compound 202b] ... 5.00 to 6.00
CC1(Oc2ccncc2)CCN(CCOc2ccccc2)C1 (stereo not drawn) [Example 59b] ... 4.52 to 5.00

Could you now consider this next molecule?
(Q) For the molecule shown here, `CC1(Oc2ccccc2)CCN(CCOc2ccccc2OC(F)(F)F)CC1` , give the reported pKi.
(A) > 7.00
